Recorded pIC50 values for a group of compounds are listed next.
# TARGET_DESC: recombinant human Mcl-1 (residues 171-327) / Bim interaction (Homo sapiens (Human), UniProt Q07820)
# Sequence (Q07820 171-327): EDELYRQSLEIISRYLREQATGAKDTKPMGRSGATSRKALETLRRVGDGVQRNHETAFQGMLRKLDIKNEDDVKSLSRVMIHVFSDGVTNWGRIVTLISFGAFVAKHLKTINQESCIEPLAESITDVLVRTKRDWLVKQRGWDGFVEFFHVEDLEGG
# PROTOCOL_NOTES: biochemical
# Assay type: binding
# CONDITION_CONTEXT: TR-FRET, Mcl-1(171-327) / biotin-Bim (51-76); read-out: Mcl-1 HTRF IC50
pIC50: −log10 of the molar value.
PROPERTY_LABEL: pIC50

COMPOUND	PROPERTY_LABEL	MEAS_VALUE
C[C@@H]1[C@@H](C)C[C@@H]2C=CC[C@](O)(C2)[C@@H]2CC[C@H]2CN2C[C@@]3(CCCc4cc(Cl)ccc43)COc3ccc(cc32)C(=O)NS1(=O)=O	pIC50	9.37
C[C@@H]1[C@@H](C)C/C=C/[C@@](O)(C#CCCN2CCOCC2)[C@@H]2CC[C@H]2CN2C[C@@]3(CCCc4cc(Cl)ccc43)COc3ccc(cc32)C(=O)NS1(=O)=O [Example 100327]	pIC50	9.53
CN[C@@H]1C[C@H](C)[C@@H](C)S(=O)(=O)NC(=O)c2ccc3c(c2)N(C[C@@H]2CC[C@H]2[C@@](C)(O)C1)C[C@@]1(CCCc2cc(Cl)ccc21)CO3 [Example 100066]	pIC50	8.84
CC(C)OC[C@]1(O)/C=C/C[C@H](C)[C@@H](C)S(=O)(=O)NC(=O)c2ccc3c(c2)N(C[C@@H]2CC[C@H]21)C[C@@]1(CCCc2cc(Cl)ccc21)CO3	pIC50	9.04
CO[C@@H](C[C@]1(OC)/C=C/C[C@H](C)[C@@H](C)S(=O)(=O)NC(=O)c2ccc3c(c2)N(C[C@@H]2CC[C@H]21)C[C@@]1(CCCc2cc(Cl)ccc21)CO3)C1CC1 [Example 100462]	pIC50	9.52

----------
# TARGET_DESC: recombinant human Mcl-1 (residues 171-327) / Bim interaction (Homo sapiens (Human))
# PROTOCOL_NOTES: biochemical
# Type: binding
# CONDITION_CONTEXT: TR-FRET, Mcl-1(171-327) / biotin-Bim (51-76); read-out: Mcl-1 HTRF IC50
pIC50: −log10 of the molar value.
Some compounds, each annotated with its measured pIC50.
PROPERTY_LABEL: pIC50

COMPOUND	PROPERTY_LABEL	MEAS_VALUE
CO[C@@]1(CCN2CCCC2)/C=C/C[C@H](C)[C@@H](C)S(=O)(=O)NC(=O)c2ccc3c(c2)N(C[C@@H]2CC[C@H]21)C[C@@]1(CCCc2cc(Cl)ccc21)CO3	pIC50	10.01
C[C@@H]1[C@@H](C)C/C=C/[C@@](O)(CC(=O)N2CCN3CCOC[C@H]3C2)[C@@H]2CC[C@H]2CN2C[C@@]3(CCCc4cc(Cl)ccc43)COc3ccc(cc32)C(=O)NS1(=O)=O	pIC50	8.99
C[C@@H]1[C@@H](C)CCC[C@@](O)(CC(=O)N2CCOC2=O)[C@@H]2CC[C@H]2CN2C[C@@]3(CCCc4cc(Cl)ccc43)COc3ccc(cc32)C(=O)NS1(=O)=O (stereo in doubt) [Example 100154]	pIC50	8.76
COCC[C@]1(OC)/C=C/C[C@H](C)[C@@H](C)S(=O)(=O)NC(=O)c2ccc3c(c2)N(C[C@@H]2CC[C@H]21)C[C@@]1(CCCc2cc(Cl)ccc21)CO3	pIC50	8.55
CO[C@@]1(C#CCCN2CCN3CCOC[C@@H]3C2)/C=C/C[C@H](C)[C@@H](C)S(=O)(=O)NC(=O)c2ccc3c(c2)N(C[C@@H]2CC[C@H]21)C[C@@]1(CCCc2cc(Cl)ccc21)CO3	pIC50	9.82

----------
# TARGET_DESC: recombinant human Mcl-1 (residues 171-327) / Bim interaction (Homo sapiens (Human))
# PROTOCOL_NOTES: biochemical
# Assay type: binding
# CONDITION_CONTEXT: 0.1 nM Mcl-1(171-327), 0.05 nM biotin-Bim (51-76); read-out: Mcl-1 HTRF IC50

COMPOUND	IC50, nM
CO[C@@]1(CN2CCN3CCOC[C@@H]3C2)/C=C/C[C@H](C)[C@@H](C)S(=O)(=O)NC(=O)c2ccc3c(c2)N(C[C@@H]2CC[C@H]21)C[C@@]1(CCCc2cc(Cl)ccc21)CO3 [Example 56]	0.083
COC[C@@H]1[C@@H](C)C/C=C/[C@](CN2CCN(C(C)C)CC2)(OC)[C@@H]2CC[C@H]2CN2C[C@@]3(CCCc4cc(Cl)ccc43)COc3ccc(cc32)C(=O)NS1(=O)=O [Example 173]	0.173
CO[C@]1(CN2CCN3C[C@H](C)OC[C@@H]3C2)/C=C/C[C@H](C)[C@@H](C)S(=O)(=O)NC(=O)c2ccc3c(c2)N(C[C@@H]2CC[C@H]21)C[C@@]1(CCCc2cc(Cl)ccc21)CO3 [Example 146]	0.337
CO[C@@]1(CN2CCN(Cc3ncccn3)CC2)/C=C/C[C@H](C)[C@@H](C)S(=O)(=O)NC(=O)c2ccc3c(c2)N(C[C@@H]2CC[C@H]21)C[C@@]1(CCCc2cc(Cl)ccc21)CO3 [Example 338]	0.1
CO[C@@]1(CN2CCOC3(COC3)C2)/C=C/C[C@H](C)[C@@H](C)S(=O)(=O)NC(=O)c2ccc3c(c2)N(C[C@@H]2CC[C@H]21)C[C@@]1(CCCc2cc(Cl)ccc21)CO3 [Example 198]	0.181
CO[C@@]1(CN2CCN3C(=O)COC[C@@H]3C2)/C=C/C[C@H](C)[C@@H](C)S(=O)(=O)NC(=O)c2ccc3c(c2)N(C[C@@H]2CC[C@H]21)C[C@@]1(CCCc2cc(Cl)ccc21)CO3 [Example 141]	0.152
CNC[C@]1(OC)/C=C/C[C@H](C)[C@@H](C)S(=O)(=O)NC(=O)c2ccc3c(c2)N(C[C@@H]2CC[C@H]21)C[C@@]1(CCCc2cc(Cl)ccc21)CO3 [Example 65]	0.451
CO[C@@]1(CN2CCN3CCCC[C@@H]3C2)/C=C/C[C@H](C)[C@@H](CC2CCC2)S(=O)(=O)NC(=O)c2ccc3c(c2)N(C[C@@H]2CC[C@H]21)C[C@@]1(CCCc2cc(Cl)ccc21)CO3 [Example 41]	0.642
CO[C@@]1(CN2CCN(Cc3noc(C)n3)CC2)/C=C/C[C@H](C)[C@@H](C)S(=O)(=O)NC(=O)c2ccc3c(c2)N(C[C@@H]2CC[C@H]21)C[C@@]1(CCCc2cc(Cl)ccc21)CO3 [Example 316]	0.166
COCC(C)(C)N1CCN(C[C@]2(OC)/C=C/C[C@H](C)[C@@H](C)S(=O)(=O)NC(=O)c3ccc4c(c3)N(C[C@@H]3CC[C@H]32)C[C@@]2(CCCc3cc(Cl)ccc32)CO4)CC1 [Example 297]	0.128
CO[C@@]1(CN2CC(C)(N(C)C)C2)/C=C/[C@H](C)[C@H](C)CS(=O)(=O)NC(=O)c2ccc3c(c2)N(C[C@@H]2CC[C@H]21)C[C@@]1(CCCc2cc(Cl)ccc21)CO3 [Example 162]	0.072
CO[C@@]1(CN2CCN3CC[C@H](F)C[C@@H]3C2)/C=C/C[C@H](C)[C@@H](C)S(=O)(=O)NC(=O)c2ccc3c(c2)N(C[C@@H]2CC[C@H]21)C[C@@]1(CCCc2cc(Cl)ccc21)CO3 (single isomer, unassigned) [Example 284]	0.288
CO[C@@]1(CN2CCN(C3COC3)CC2)/C=C/[C@H](C)[C@H](C)CS(=O)(=O)NC(=O)c2ccc3c(c2)N(C[C@@H]2CC[C@H]21)C[C@@]1(CCCc2cc(Cl)ccc21)CO3 [Example 158]	0.092
CO[C@@]1(CN2CCOCC2)/C=C/C[C@H](C)[C@@H](C)S(=O)(=O)NC(=O)c2ccc3c(c2)N(C[C@@H]2CC[C@H]21)C[C@@]1(CCCc2cc(Cl)ccc21)CO3 [Example 52]	0.522
CCO[C@@]1(CN2CCC(N(C)C)CC2)/C=C/C[C@H](C)[C@@H](C)S(=O)(=O)NC(=O)c2ccc3c(c2)N(C[C@@H]2CC[C@H]21)C[C@@]1(CCCc2cc(Cl)ccc21)CO3 [Example 110]	0.505
CO[C@@]1(CN2CCN(c3ncccn3)CC2)/C=C/C[C@H](C)[C@@H](C)S(=O)(=O)NC(=O)c2ccc3c(c2)N(C[C@@H]2CC[C@H]21)C[C@@]1(CCCc2cc(Cl)ccc21)CO3 [Example 256]	0.433
CO[C@@]1(CN2CCN3CCOC[C@@H]3C2)/C=C/C[C@H](C)[C@@H](Cc2ccccc2)S(=O)(=O)NC(=O)c2ccc3c(c2)N(C[C@@H]2CC[C@H]21)C[C@@]1(CCCc2cc(Cl)ccc21)CO3 (single isomer, unassigned) [Example 102]	0.182
C[C@@H]1[C@@H](C)C/C=C/[C@]2(CN(C)CCO2)[C@@H]2CC[C@H]2CN2C[C@@]3(CCCc4cc(Cl)ccc43)COc3ccc(cc32)C(=O)NS1(=O)=O [Example 130]	0.92
CO[C@]1(CN2CCN(Cc3cscn3)CC2)/C=C/C[C@H](C)[C@@H](C)S(=O)(=O)NC(=O)c2ccc3c(c2)N(C[C@@H]2CC[C@H]21)C[C@@]1(CCCc2cc(Cl)ccc21)CO3 [Example 72]	0.8
